- protocol-summary: Example 6 pharmacokinetics assay for PKPD study (plasma, tumor, liver)
- Assay type: in vivo, BALB/c nude mice
- condition-label: mouse, liver, po; 35 mg/kg, single dose; 6 h; read-out: Concentration in Liver (mean ± SEM)
measurement-kind: concentration at 6 h
Could you kindly put the unit after your number?

### Prompt Supply measured concentration at 6 h of COC(=O)N[C@@H](C)CNc1nccc(-c2cn(C(C)C)nc2-c2cc(Cl)cc(NS(C)(=O)=O)c2F)n1 [Encorafenib, encorafenib, reference compound] in your reply.
### Response 375 ng/g

* * *

- protocol-summary: Pharmacokinetics after 21 days dosing in the efficacy study (plasma, tumor and brain concentrations; plasma AUC at steady state), Example 14
- Format: in vivo, female BALB/c nude mice
- condition-label: mouse, plasma, po; 0.75 mg/kg p.o. BID x 21 days; 1 h; mean ± SEM
measurement-kind: concentration at 1 h (ng/mL)
Express the result in ng/mL but write the number alone.

### Prompt Supply measured concentration at 1 h of CCN(C)S(=O)(=O)Nc1ccc(F)c(Oc2ccc3ncn(C4CC5(CCN(C6CC7(C6)CN(c6cc8c(cc6F)c(N6CCC(=O)NC6=O)nn8C)C7)CC5)C4)c(=O)c3c2)c1C#N (stereo not shown) in your reply.
### Response 1140

Data origin, for the record: patent US20260297060A1
